Tested on: Rattus norvegicus
Method: Antiinflammatory activity in albino rat assessed as inhibition of carrageenan-induced paw edema at 5 mg/kg, po administered 30 mins before carrageenan challenge measured after 1 hr
Assay type: functional

{"Smiles code": "CCOC(=O)Cc1n[nH]c(NC(=O)c2ccc(Cl)cc2)n1", "Units": "%", "inhibition in vivo at 5 mg/kg": 31.1}
{"Smiles code": "CCOC(=O)Cc1n[nH]c(N)n1", "Units": "%", "inhibition in vivo at 5 mg/kg": 25}
{"Smiles code": "Nc1nc(CC(=O)O)n[nH]1", "Units": "%", "inhibition in vivo at 5 mg/kg": 22.3}
{"Smiles code": "CCOC(=O)Cc1n[nH]c(NC(=O)c2ccc(Br)cc2)n1", "Units": "%", "inhibition in vivo at 5 mg/kg": 31.3}
{"Smiles code": "CCOC(=O)Cc1n[nH]c(NC(=O)c2ccc([N+](=O)[O-])cc2)n1", "Units": "%", "inhibition in vivo at 5 mg/kg": 32.6}
{"Smiles code": "CCOC(=O)Cc1n[nH]c(NC(=O)c2ccccc2)n1", "Units": "%", "inhibition in vivo at 5 mg/kg": 26.8}
{"Smiles code": "CCOC(=O)Cc1nc(N)n(C(=O)c2ccc(Cl)cc2)n1", "Units": "%", "inhibition in vivo at 5 mg/kg": 34.2}
{"Smiles code": "COc1ccc2c(c1)c(CC(=O)O)c(C)n2C(=O)c1ccc(Cl)cc1", "Units": "%", "inhibition in vivo at 5 mg/kg": 31.5}
{"Smiles code": "CCOC(=O)Cc1nc(N)n(C(=O)c2ccc(Br)cc2)n1", "Units": "%", "inhibition in vivo at 5 mg/kg": 34.8}
{"Smiles code": "CCOC(=O)Cc1nc(N)n(C(=O)c2ccc(OC)cc2)n1", "Units": "%", "inhibition in vivo at 5 mg/kg": 32.8}
{"Smiles code": "CCOC(=O)Cc1n[nH]c(NC(=O)c2ccc(OC)cc2)n1", "Units": "%", "inhibition in vivo at 5 mg/kg": 30.2}
{"Smiles code": "CCOC(=O)Cc1nc(N)n(C(=O)c2ccc([N+](=O)[O-])cc2)n1", "Units": "%", "inhibition in vivo at 5 mg/kg": 36.1}
{"Smiles code": "CCOC(=O)Cc1nc(N)n(C(=O)c2ccccc2)n1", "Units": "%", "inhibition in vivo at 5 mg/kg": 31.6}
